experiment: BIC plasma pharmacokinetics, Phase 1 open-label single-dose DDI study GS-US-380-3909 (B/F/TAF 50/200/25 mg with antacid or mineral supplements); assay type: in vivo, human; conditions: both sexes, human, plasma, oral, BIC VZ/F, mean (%CV), Cohort 3 fed; B/F/TAF + aluminum/magnesium-containing antacid simultaneous; N = 14
property: Vd/F (L)

chemical-structure: O=C(NCc1c(F)cc(F)cc1F)c1cn2c(c(O)c1=O)C(=O)N1[C@H]3CC[C@H](C3)O[C@@H]1C2
property: Vd/F
units-symbol: L
reported-result: 29.1

* * *

experiment: BIC plasma pharmacokinetics, Phase 1 open-label single-dose DDI study GS-US-380-3909 (B/F/TAF 50/200/25 mg with antacid or mineral supplements); assay type: in vivo, human; conditions: both sexes, human, plasma, oral, Cohort 1 fasted; B/F/TAF with ferrous fumarate simultaneous; N = 14; read-out: Cmax, test GLSM
property: Cmax (ng/mL)

chemical-structure: O=C(NCc1c(F)cc(F)cc1F)c1cn2c(c(O)c1=O)C(=O)N1[C@H]3CC[C@H](C3)O[C@@H]1C2
property: Cmax
reported-result: 1610
